# runDescription: amyloid nucleation score (Sup35N fusion, yeast selection) (log enrichment); library NNK1; higher = more nucleation; inactive = no reads after selection;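 further: zero at mode of non-aggregating sequences after 7 days selection at 30°C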
Quick reference: amyloid nucleation score of the listed items.
measurementKind: amyloid nucleation score

substance	reportedResult
MTHLNPMSFVDPKFVPVDFS	2.48
RSRNSPTR	-0.027
LCITQKYRFSLHNLHQPTDW	1.93
YVCPRSWVVRVRHQKTFQSY	-0.374
RSFVNARSSYDVGFFGWNGC	2.29
YDLGMLLF	0.812
AIFFGGIGKVCVKLVLCVRL	0.248
CVIQVVLYLV	3.83
ISFCDGRSCIDLIAVRCFRG	-0.909
LCFGGRSWSCFVKVKHLFAC	1.68
SGVVTCVVFL	5.38
TVQWAEN	0.292
TLRVLFFKCLGHIRLLVRGF	-1.64
RGHAFLFVLYTFQLKAYAS	-0.033
CFFPIRDQQCTRSYHFSDHM	0.727
TIAMCISLIGIDSYY	0.997
SGDIKSFWMERCFCLVTHGK	-0.115
SCAASGNLYVSSAGGVRGKR	-0.734
YIGECLRKLIRCAHKDCEGY	-1.49
DLAFRPVLVLQ	0.762
MRGMADYC	-0.251
CTREVLWGCHCNSSASNLFS	-0.202
NMLVRKAG	-0.036
TSSYGCQHINVMCCRLQGDL	7.44
VWWHYLSLYAIWYSYVRLYV	-0.097
FIIEQANGQGYNYLHI	-0.481
VSLHSRINTVSPRKGLGSYS	0.275
YNISDSTSPMVASRMGRLGQ	0.364
LNHLVSPKALQN	0.017
RARCFHSSLVVRLLRQTAER	0.192
AGWYASW	0.142
RKESDNDFSTCVTWQNRHPD	0.529
NRLGLGPVSSICGR	-0.339
WSPNNTISNGMTKVWASGRL	0.78
TFLGLAGSHCLFSFVANSAR	1.24
LEHYRVVLLG	-0.535
YLQGENNWRVVGQRLSTSPA	0.03
VTRTYLNRMRSMLSGSMFFM	0.423
CPPSYLMT	-0.464
SVNRLTLKPSYAKYRVYSGH	0.46
CYKAAQGFIFSRK	0.482
HPQYMLPT	0.569
KHAYFSLIRVSNWKWNSVRV	-0.027
LRAHGAYRYQWEACCHNLG	-0.138
LVSQTYNMVARLRSSLARVN	0.243
SSCYDRVLYAPDRRR	1.23
WRMYMYVNNPSNKHWVRRAS	-0.488
ILLRLGDVVRIGLVFVTSFG	0.421
KSPRVSVGTASVSWRKKFTW	0.2
AGSDGQGDGEQWRNHLRPIA	-0.294
IVVYVCIVGNNAPSLDAKSV	0.923
QCRQAQLVLFGVSVWTGYVK	-0.083
ELCAQYVIFSFASSRSYDSY	0.579
DRNYVGELTEFTGVMGRGRQ	-0.858
RYIPARGVNGGYSVVVRHLG	-0.436
YNNLIPTYHHWGSFHMV	1.32
WCNRHHDWVVLLAIVAGGEV	0.873
GNLRNMLMTYSSSVGNKLIF	-0.344
FLRELMRCIGASSTFLGVEK	-0.204
AKMRMNNSFFFTVNWVLMNW	-0.461
SWWLICYYVSWYFSD	-1.69
QEGRSFRGYTMVKYVFISRY	1.38
CDEGWEESNSTD	-0.522
SYCYKDGWELVLEYLFVNCT	1.21
RPCNEGFWLHNHGRSNSSSS	-0.462

---

Quick reference: amyloid nucleation score of the listed items.
# runDescription: amyloid nucleation score (Sup35N fusion, yeast selection) (log enrichment); library NNK1; higher = more nucleation; inactive = no reads after selection

sequenceEntry	amyloid nucleation score
RRSESGKCFDLLSSSLSVIN	-0.786
TFVSLATTDFPPNFSLKLFV	-0.579
LCFDVSFRYYGMGYIL	0.165
RKGSMWFCRCLVRMRHRALP	-0.295
SVFSLVYGKN	0.685
YFSKTISFLFSFNSCYEFIK	1.19
SDLWLLECWTLDICGWLKAT	0.992
LDSARMGLFITGMV	-1.06
RRIFRYSMNNLNVFVYNRFP	-0.277
TYWMHCEWFSV	-1.4
VFGVVSFLHDFNFGKAYFAV	0.191
LLGIEFTSDLLPIPSISPNE	0.239
KRVANDWEYGFGYNPTVVGR	0.295
NDDNCSSVSWWNKWCSTR	1.44
FSFGIVSVMGYVLYRRRPWA	1.08
DVVLVYGTITGSWVQSVWEG	0.553
PERVVYANATAYRLLVKDAL	0.247
MCVLYMGGSFRF	1.58
HILYKRFFFGSCSSGCHL	-0.428
PMRACHCCFGCTKSLAHDSN	0.912
VSWWNCLL	-1.28
FRSGYRLACSAMSIAFCIYE	0.341
KFFFKSSNDVIKGVHNRTIR	-0.404
LSMSCENFHLTQSSEGCSRV	0.19
LWLTPTQCMTHNFPLLTPRR	-0.354
VNDQAGRLGD	0.904
VKSRYLFRCSLLFEHDTGIC	0.01
LWLTHKCYCLDSNTCIKCEL	-0.312
TGKDLRAEHENFVARNHFPM	-0.954
SGYWAPINLTGVMDS	0.053
NSGVVRLFPYFMYRTAWLKS	0.224
NLNSMAFV	0.662
NSLCEFSMKMFTYNSMGGFI	1.86
SGQTYGNFFGEAFWYECA	0.19
HECRWRTVYNQ	0.786

---

# runDescription: amyloid nucleation score (Sup35N fusion, yeast selection) (log enrichment); library NNK3; higher = more nucleation; inactive = no reads after selection

substance	amyloid nucleation score
SYRYNRLYHWVHDLLCSTLV	inactive
VWSFGLLVS	-0.17
VGLFASPDRRYRMIAFVPGL	inactive
FSVGEFCR	inactive
MIKVLCTLFIDWAVAYVICH	inactive
PVAVLDG	0.654
LCYALQEGRRWEGYEIRNSM	inactive
ISPGRAGQVVSLAGHSYQAL	inactive
AYCVFHSIYGV	inactive
CNYPKFHWLGRSVIKFIDFL	inactive
CCLYTVNNSDSLVNTTVGVG	inactive
NYLNTVPVPGGPMVCMQHRI	inactive
CRQWCDWCTGSYPGYCFQC	inactive
RVFIDRDRP	inactive
LENSNFWSCSWISRYIYIRN	inactive
SVDYQGYNGKKYLFTISLRC	inactive
SMGKCRFRCVNIIFYWRWIH	1.25
RRARFFVHAQVRWVCFWAMK	inactive
IRTARNTEETMVVACMTVGV	inactive
TTLGHTPPVCFSDPWAQARA	inactive
RVYHLIWFFYYLYNGHFISS	inactive
ECENMHDTKDLGLTDGVYII	inactive
GFRFNKIRMSPDSNTLCGCA	inactive
NHNPVCGVDNRMKVVRLYYV	inactive
MVCFYHTGELPDWENR	inactive
RQSCGFILQWDKLCFSRDRT	0.879
VLFKYTSRIMDCVKTLKPLK	inactive
MFDLYN	inactive
YTVTASQTYFYSCRDGFAFS	inactive
YWFFIIIFNNIHSADGFIVS	inactive
FILRLVEVSNFCTRYRNAYS	inactive
VGETWNSVACVLTQLWLTCE	-0.014
FWRYAYNCYCGYSCDQIGDS	inactive
YAIVGSRVVRLRSKNRRNLS	inactive
KLCVESRIIYTFV	inactive
FGVQVWLMLFLGNVYIWMVM	inactive
IYRLDSSTSCICHCFLILVF	inactive
LKVVYGSLALPSFKFIWQAE	inactive
MVWWNPNSWNVMLSLIWCLV	0.752
LLSVICLTSIHF	2.74
NITVHVNRMKFCCMYAESHD	inactive
NCICDIYILTLELSLLRRWV	inactive
VQLIWDFYSCSN	inactive
TKDGHYA	inactive
TLTLAFARGDAYPSIARLV	inactive
YLIGLRCWCSL	inactive
DECYNVLRSVVYGMTSSTGW	inactive
INMRFIQKRMFVYLNYSWYA	inactive
YYTFSVHSYGEFMRCLFIQH	inactive
DAETPLHSFGMQLLGRASMR	inactive
NLEYDPIRHRNVLNPSWFCS	inactive
YGVESAYKCRNVYFLYWCML	0.511
LSMCSLHRNTVFWFRISLMI	inactive
DPVIYRCSLVLLYSERSLPY	inactive
RSSDSDMSLECKAVE	inactive
CVATNYSYCSIFLHRA	2.01
NLGLRGPLLAMKCMIACYVQ	inactive
GIFKFMAV	inactive
KFCGEH	inactive
TVHKVSGKDQGWMYGHMLFC	inactive
EAGSPALRR	0.078
APAKTYIACC	inactive
LFYIPFCMSFWTSKDRNA	inactive
LSLVQGR	inactive
MSMDHLMTYLRLATQVALRS	inactive
IGTLSNLLTKGCKYYGVNIC	inactive
KYPSYLNLSCVAVKYVWCSE	1.94
AWKTLAHRQSWGGCNRA	inactive
CFLYLLLQTN	inactive
RFYGDM	inactive
WGCEIRANLLITSWVSVTVG	inactive
RVPYFYFPPLR	inactive
